The values you see were collected from PubChem BioAssay (Tox21).

- Protocol text: qHTS assay to identify small molecule agonists of the estrogen related receptor (ERR) signaling pathway from Tox21 library (AID 1224849); further: on the % scale 0 is the no-effect control and ±100 the full control effect; nearly all actives have a fitted effect of over 15% in size
- Condition: ERR reporter cell line, ONE-Glo luciferase, 18 h; at 92.4 µM (top of the series) unless noted
The source made the active and inactive calls. The call rests on the fitted dose curve.
Measured metric: activity change, positive = activation

* CCN[C@@H](C)Cc1ccccc1 | 9.72% (inactive)
* CCN(CC)CCOC(=O)C(O)(c1ccccc1)c1ccccc1 | 2.32% [at 42.5 µM] (inactive)
* CCOC(=O)N(C)N=O | -2.98% (inactive)
* Clc1nc(Cl)nc(Nc2ccccc2Cl)n1 | 2.23% (inactive)
* C#CCOC(=O)/C=C(C)/C=C/CC(C)CCCC(C)C (centres undefined) | 0.281% (inactive)
* CN=CNc1ccc(C)cc1C | 1.36% (inactive)
* Cc1ccc2c(c1)C1CN(C)CCC1N2 (centres undefined) | 6.1% [at 19 µM] (inactive)
* COc1cccc(C=O)c1 | 0.51% (inactive)
* O=[N+]([O-])c1cccc(CCl)c1 | -0.166% (inactive)

---

- Target of assay: Bile acid receptor (Homo sapiens)
- Protocol text: qHTS assay to identify small molecule antagonists of the farnesoid-X-receptor (FXR) signaling pathway (AID 743217); further: on the % scale 0 is the no-effect control and ±100 the full control effect
- Condition: HEK293T FXR-UAS-bla, beta-lactamase ratio, CDCA-stimulated, 16 h; series mostly up to 62.6 µM
Inconclusive results are not listed. Activity calls are given as the source filed them. The call rests on the fitted dose curve; in most records, active means well fitted inhibition curve with a large enough effect in the signal ratio in the repeat runs (not every such curve was filed as active); inconclusive means weak or mixed curves, or effect the other way; inactive means no such curve, though single readings can be large or run the other way; the % refers to the signal ratio.
Measured metric: outcome

• COC(=O)[C@@H](N)CCCN/C(N)=N/[N+](=O)[O-] = inactive
• CCC(C(N)=O)N1CCCC1=O (configuration not stated) = inactive
• CCN1CCCC1CNC(=O)C(O)(c1ccccc1)c1ccccc1 (configuration not stated) = inactive
• BrCC1CO1 (configuration not stated) = inactive
• CCOC(=O)CCl = inactive
• Cn1c(N)nc2c3cccnc3ccc21 = inactive
• CN(C)CCN(C)C = inactive
• NNCc1ccccc1 = inactive
• CCOC(=O)c1ncn2c1CN(C)C(=O)c1c(I)cccc1-2 = inactive
• Cc1cc(OC(=O)N(C)C)nn1C(=O)N(C)C = inactive
• ClC(Cl)(Cl)Cl = inactive
• O=C(O)c1c(Cl)ccc2cc(Cl)cnc12 = inactive
• CCCCOC(C)=O = inactive
• CC(C)(O)C(Cl)(Cl)Cl = inactive
• CCC(=O)OC1(c2ccccc2)CCN(C)CC1 = inactive
• CC(O)CCl (configuration not stated) = inactive
• CCCC[N+](=O)[O-] = inactive
• COc1cc(CCN)cc(OC)c1OC = inactive
• CCN(CCO)CCn1c(Cc2ccccc2)nc2c1c(=O)n(C)c(=O)n2C = inactive
• NCCOS(=O)(=O)O = inactive
• OP(O)c1ccccc1 = inactive
• N[C@@H]1C[C@H]1c1ccccc1 = inactive
• Cc1ccc2cc(C)ccc2c1 = inactive
• CCN[C@@H](C)Cc1ccccc1 = inactive
• CN(C)CCc1c[nH]c2cccc(OP(=O)(O)O)c12 = inactive
• BrCc1ccc(Br)cc1 = inactive
• COc1ccc(CN2CCNCC2)c(OC)c1OC = inactive
• O=C(Cl)c1ccccc1 = inactive
• Oc1ccc2c3c1O[C@H]1[C@@H](O)C=C[C@H]4[C@@H](C2)NCC[C@@]341 = inactive
• CC(C)(C)C(=O)Cl = inactive
• ClCOCCl = inactive
• COc1ccc(C=O)cc1O = inactive
